# System: HCT-116
# MEASUREMENT DESCRIPTION: NCI tumour cell line growth inhibition, 48 h
The source made the active and inactive calls. Rule as the data show it: active = GI50 up to about 1.1 µM and inactive = higher.
ASSAY ENDPOINT: GI50

>>> result("Cc1c(C#N)c2ccccc2c2nc3ccccc3n12")
"24.9 µM (inactive)"
>>> result("COC(=O)[C@@H]1CN(C(=O)c2ccccc2)C(=O)N1C(=O)OCc1ccccc1")
"> 100 µM (inactive)"
>>> result("CCc1ccc2nc(-c3ccc(O)cc3)sc2c1")
"16.7 µM (inactive)"
>>> result("CC1=CC(=O)c2cccc(O)c2C1=O")
"1.91 µM (inactive)"
>>> result("Nc1nc(NC2C=C(CO)C(O)C2O)c([N+](=O)[O-])c(=O)[nH]1 (stereo not given)")
"> 100 µM (inactive)"

Look up GI50: CN(CCc1ccc(N)cc1)[C@H]1CCCC[C@H]1N1CCCC1 > 100 µM (inactive)
